assayed system: L-lactate dehydrogenase (Plasmodium falciparum (isolate CDC / Honduras))
experiment notes: PfLDH activity inhibition – cell lysate, 3D7 strain, counter-screen for P. falciparum growth inhibition project (AID 2304);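 note: 0% = vehicle and 100% = reference inhibitor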
recorded conditions: P. falciparum 3D7 crude extract, LDH APAD/NBT absorbance; at 2 µM; stronger effect = higher value
reported metric: inhibition (%)
Answer in %, number only, no unit symbol.

Example cases with answers are listed next.
O=C(Nc1cc(F)c(F)c(-c2cccnc2)c1)N1CCc2cc(Cl)c(Cl)cc21: 5
CCc1c(C)nc(-n2nc(C)cc2NC(=O)c2cccc3ccccc23)[nH]c1=O: 1
COc1cccc(CN2CCCN(Cc3cccc(NC(=O)c4cc5ccccc5s4)c3)CC2)c1: -9
Fc1ccc2nc(-c3cccc(-c4ccc(CNCCc5ccncc5)cc4)c3)[nH]c2c1: 4
OCC1CCN(Cc2ccc(-c3cccc(-c4nc5ccc(C(F)(F)F)cc5[nH]4)c3)cc2)CC1: -4
Cc1[nH]c2ccc(-c3ccccc3)cc2c(=O)c1Br: 4

In: Give the reported value of inhibition for this record: Cc1cc(N(C)C)nc(Nc2ccc(NC(=O)Nc3ccccc3)cc2)n1
Out: -2

In: Specify reported inhibition for the compound shown: CN(C)c1ccc(-c2ccc(C(=O)NC3CCN(Cc4ccccc4F)CC3)s2)cc1
Out: -4

In: Give the measured inhibition for CS(=O)(=O)N1CC2(CCN(CCC(NC(=O)NCc3ccccc3Cl)c3ccc(Cl)c(Cl)c3)CC2)c2ccccc21 (stereo not given)
Out: -7

In: Please indicate inhibition recorded for Cc1ccccc1Nc1nc(NCc2ccccc2)nc2ccccc12
Out: -3
